src = patent US12491170B2

# TEST DETAILS: Stability in liver microsomes, dog
REPORTED PROPERTY: Trep Concentration 30 min (µM)

>>> print(df.to_string())
                                   molecule          reported_property  readout_units  readout_number
0  CCCCCC(CCC1C(O)CC2Cc3c(cccc3OCC(=O)O)CC21)Oc1ccccc1C(=O)O (stereo not shown)  Trep Concentration 30 min             µM               0
1  CCCCCC(CCC1C(OC(=O)CC)CC2Cc3c(cccc3OCC(=O)O)CC21)OC(=O)CC (stereo not shown) [Prodrug LXX, treprostinil dipropionate]  Trep Concentration 30 min             µM            1.23
2  CCCCCC(CCC1C(O)CC2Cc3c(cccc3OCC(=O)O)CC21)OC(=O)OC(C)C (stereo not shown)  Trep Concentration 30 min             µM            0.74
3  CCCCCC(CCC1C(O)CC2Cc3c(cccc3OCC(=O)O)CC21)OC(=O)C(N)CCCCN (stereo not shown)  Trep Concentration 30 min             µM          0.0449
4  CCCCCC(CCC1C(O)CC2Cc3c(cccc3OCC(=O)O)CC21)OCC (stereo not shown)  Trep Concentration 30 min             µM          0.0285
5  CCCCCC(CCC1C(O)CC2Cc3c(cccc3OCC(=O)O)CC21)OC(=O)c1ccc(C)cc1 (stereo not shown)  Trep Concentration 30 min             µM           0.366
6  CCCCCC(CCC1C(O)CC2Cc3c(cccc3OCC(=O)O)CC21)OC(=O)COc1ccc(OC(F)(F)F)cc1 (stereo not shown)  Trep Concentration 30 min             µM           0.603
7  CCCCCC(CCC1C(O)CC2Cc3c(cccc3OCC(=O)O)CC21)OC(=O)CCC(=O)O (stereo not shown)  Trep Concentration 30 min             µM            0.11
8  CCCCCC(CCC1C(O)CC2Cc3c(cccc3OCC(=O)O)CC21)OC(=O)C12CC3CC(CC(C3)C1)C2 (stereo not shown)  Trep Concentration 30 min             µM           0.696
9  CCCCCC(CCC1C(O)CC2Cc3c(cccc3OCC(=O)O)CC21)OC(=O)c1ccc(OC(F)(F)F)cc1 (stereo not shown)  Trep Concentration 30 min             µM           0.243

----------
# Hydrolysis to treprostinil, % Area, t = 3 weeks per entry
# TEST DETAILS: Hydrolysis of prodrugs to treprostinil at pH 6, 7, 8 and 40 C
# Type: physicochemical
# MEASUREMENT CONTEXT: pH 6, 40 C., 3 weeks
REPORTED PROPERTY: Hydrolysis to treprostinil, % Area, t = 3 weeks

>>> df
                                   compound       result
0  CCCCCC(CCC1C(OC(=O)CC)CC2Cc3c(cccc3OCC(=O)O)CC21)OC(=O)CC (centres unmarked) [Prodrug LXX, treprostinil dipropionate]  0.00 % Area
1  CCCCCC(CCC1C(O)CC2Cc3c(cccc3OCC(=O)O)CC21)OC(=O)c1ccc(O)cc1 (centres unmarked) [Prodrug LXVIII]  0.00 % Area
2  CCCCCC(CCC1C(O)CC2Cc3c(cccc3OCC(=O)O)CC21)OC(=O)COc1ccc(OC(F)(F)F)cc1 (centres unmarked) [Prodrug LXIV]   1.5 % Area
3  CCCCCC(CCC1C(O)CC2Cc3c(cccc3OCC(=O)O)CC21)OC(=O)C(C)C (centres unmarked) [Prodrug LXVII]  0.00 % Area
4  CCCCCC(CCC1C(O)CC2Cc3c(cccc3OCC(=O)O)CC21)OC(=O)COc1ccccc1 (centres unmarked) [Prodrug LXV]  0.39 % Area
5  CCCCCC(CCC1C(O)CC2Cc3c(cccc3OCC(=O)O)CC21)OC(=O)c1ccc(O)c(O)c1 (centres unmarked) [Prodrug LXVI]   1.9 % Area
6  CCCCCC(CCC1C(O)CC2Cc3c(cccc3OCC(=O)O)CC21)OC(=O)C12CC3CC(CC(C3)C1)C2 (centres unmarked) [Prodrug LXIX]  0.00 % Area
7  CCCCCC(CCC1C(OC(=O)OC)CC2Cc3c(cccc3OCC(=O)O)CC21)OC(=O)OC (centres unmarked) [Prodrug LXXI, treprostinil dicarbonate]  0.00 % Area
